- TEST_TARGET: Transporter, monoamine
- RUN_DESCRIPTION: Transporter, monoamine
- TEST_SETTINGS: read-out: Radioligand binding Ki; Vesicular monoamine transporter (rabbit)
REPORTED_PROPERTY: Ki
Could you give the number and then its unit, please?

Qu. Give a short answer stating reported Ki for COc1cc(Nc2ncc(F)c(Nc3ccc4c(n3)NC(=O)C(C)(C)O4)n2)cc(OC)c1OC .
Ans. 1.63 µM

###

- TEST_TARGET: Cathepsin L (Homo sapiens, UniProt P07711)
- Sequence (P07711 114-333): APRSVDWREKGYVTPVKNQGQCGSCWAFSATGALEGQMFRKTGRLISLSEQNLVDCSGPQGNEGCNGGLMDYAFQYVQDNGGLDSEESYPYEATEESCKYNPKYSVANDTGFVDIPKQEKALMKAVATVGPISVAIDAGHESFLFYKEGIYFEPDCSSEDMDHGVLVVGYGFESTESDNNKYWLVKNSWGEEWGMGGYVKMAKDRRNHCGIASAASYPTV
REPORTED_PROPERTY: IC50
Give the number first and the unit second.

Qu. Give a short answer stating reported IC50 for COc1cc(Nc2ncc(F)c(Nc3ccc4c(n3)NC(=O)C(C)(C)O4)n2)cc(OC)c1OC [R406] .
Ans. 5.93 µM
